Tested on: MS2 coat protein
assayMethodText: apparent KD of MS2 coat protein; designed switch direction (-1 OFF switch, 1 ON switch): 1; higher = weaker reporter binding
testSettings: input ligand: none
Decide by apparent KD of MS2 coat protein: equal to or exceeding 50 nM means Satisfied, less means Not satisfied.

Solved cases below.
GCUACCAUUGAAGCCAACAUGAGGAUCACCCAUGUAUGUUGGCAGGAUAUCGAUUGCAAAGCGAUCGAGAAGGGCUAAGGUAGC [Mat - Same State NG 3 - JL Mod - D86] (Eterna round: R96, puzzle: Same State NG 3) = Satisfied
GGAAUAUUCACAGGAUAUGAGUUGUAAAGUGGAUCAGAAGGGUGGGUGUUUUGCACGGUGUGUUACAUGAGGAUCACCCAUGUU [SameState NG1 #23] (Eterna round: R96, puzzle: Same State NG 1) = Satisfied
UGCUAGUGGGUAGGAUAUUUAGGAUAUGCGGAAGACUAAGUCUGUAGGUCACCUAACGCAGAAGGAGAGAAGGACCCUUCAGCU [pwkr ssNG2 2FMN + F9.29] (Eterna round: R96, puzzle: Same State NG 2) = Not satisfied

Determine whether measured apparent KD of MS2 coat protein meets or exceeds 50 nM for AGCCUGCCGCAAGGAUAUGAAGCUUUCGCUCCGUCAGAAGGUGCACAUGAGGAUCACCCAUGUAUGCAGGCCAAGAAAUAAAAC [Inbilerate] (Eterna round: R96, puzzle: Same State NG 1)
Satisfied

Determine whether measured apparent KD of MS2 coat protein meets or exceeds 50 nM for AGGCUCAGAGCAGGAUAUAUGUCUCGAGCUUCGGCUCGAGACAUGAGGAUCACCCAUGUAAUAACAUAGAAGGGCUCUGAGCCA [SSNG2/1-B1] (Eterna round: R96, puzzle: Same State NG 2)
Satisfied

Determine whether measured apparent KD of MS2 coat protein meets or exceeds 50 nM for GCUAGGAAUUAAGCCAACAUGAGGAUCACCCAUGUAUGUUGGUAGGAUAUCGUUUGCAAAGCAAACGAGAAGGGCUAACCUAGC [Mat - Same State NG 3 - JL Mod - D72] (Eterna round: R96, puzzle: Same State NG 3)
Satisfied

Determine whether measured apparent KD of MS2 coat protein meets or exceeds 50 nM for GCUCGAUGAAUGUCCUACAUGAGGAUCACCCAUGUUCGUGGGCAGGAUAUUUACAUGCAGAGUGUAGAGAAGGGCCCAUCGAGC [SameState NG3 #63] (Eterna round: R96, puzzle: Same State NG 3)
Satisfied

* * *

Test system: MS2 coat protein
assayMethodText: apparent KD of MS2 coat protein; higher = weaker reporter binding
testSettings: Eterna round: R107; input ligand: arginine 13.2 mM
I'd appreciate it if you could supply apparent KD of MS2 coat protein values for the items below.
One number for each entry, in nM.

CCAUAAGUACCGGUCCUCAGAUCCUCAUGACGAGGACCGGUACGGCCGCCACUCGAAACAUGAGGAUCACCCAUGUAAUAAUAUC [Brourdmod17] = 25.5

Below are 5 sequences. Give each one its apparent KD of MS2 coat protein.
1. UGCGGACAUGAGGAUCACCCAUGUGCGGAUACCAGCAGCCGGCUCUGCCCUUGGCAGCCGCUACCCUUGCACGUUUAACGAUCCA [theeternabot_sameState_MS2_Theo_A_27]
2. UAUAUUGUGAUGGAUACCAGCAGAGAAAACGUUUAUCCUAACAUGAGGAUCACCCAUGUAUGCCCUUGGCAGCUGUUGUGAUAUA [8.N]
3. GAAGGAGUUAUGGGUACUCCUUCACUGGAAGGAGCGAGCGAAAGCUCAGGUAGGUCGCCAGAAACAUGAGGAUCACCCAUGUAAU [(A)''-(M)'-(A)'-(Arg1)-(Arg2)-(M1)-(M2)_Design6]
4. ACACAUGAGGAUCACCCAUGUGCCCAUGAAGGAGCGUGGGAAACCACAGGUAGGUCGCAUGACAUGAGGAUCACCCAUGUUUAUU [Astarte]
5. AACAUGAGGAUCACCCAUGUCCCAUGUGAACGAGGACCGGUACGGCCGCCACUCGAAUGAGGCGGCACAUGAGGAUCACCCACAU [whbob_SS_trypto A_2s11]

31.9
47.6
30.3
29
95.7

Below are 5 sequences. Give each one its apparent KD of MS2 coat protein.
1. ACCAGGGUCUGAAGGAGCGCGAUUACAUGAGGAUCACCCAUGUGAAAUGGUAGAUGAUACUCGCAGGUAGGUCGCAGUACUUGGA [Same State Arginine B GF 14]
2. AUAUGAUCAUGGGAUACCAGAAAUGGUAUUCCUUUAUUUCUUACAUGAGGAUCACCCAUGUUCCCUUGGCAGCUUAUGAUCAUAU [ETHB #5]
3. CAUUUUAGAAAACUAAAAUGAGUGGGUGAACGAGGACCGGUACGGCCGCCACUCGGACAUGAGGAUCACCCAUGUCCAUGUGAAA [AstrosExyTryA#22]
4. AAUUUGUCGGGUGAUACCAGCCUCGGCGCGUCUCGCGCUGAACAUGAGGAUCACCCAUGUGGCCCUUGGCAGCACAUGACAAAUC [Raracere]
5. CCUAUCCAGUCGGCCGCCACUGAAAACAGUGGGUGAACAUGAGGAUCACCCAUGUAAUAAUAAAACAGGACCGGGACUGUAUAGG [Ex Tryptophan B 22]

[53.3, 53.7, 22.8, 367, 290]

Can you share its apparent KD of MS2 coat protein? I mean this sequence: AAGGUGAUCCGUGAUACCAGCUCAACAUGAGGAUCACCCAUGUAACGGACGAAAGUCCGGAGCCCUUGGCAGCACGGUAAUAAUA [(M)'-(Theo1)-(Ms2)-(Theo2)-(M'')_Design2b]
10.4

* * *

Test system: K4 kissing-loop RNA reporter;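 also: bound reporter read as fluorescence of individual clusters on recovered sequencing chips by microscopy, with normalized cluster intensities fitted with a binding model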
assayMethodText: apparent KD of K4 kissing-loop reporter; higher = weaker reporter binding
testSettings: Eterna round: R107; input ligand: theophylline 20 uM
I'd appreciate it if you could supply apparent KD of K4 kissing-loop reporter values for the items below.
Give bare numbers, in nM.

ACAUUAGGCACGGCCGCCACUGGAUUAAGAUCUUAAGUAUUAAUUAACAUGAGUGAUGUUCAUGCCAGGACCGGGUGACUACCAU [KL-SSTryp-B11] = 267

Below are 2 sequences. Give each one its apparent KD of K4 kissing-loop reporter.
1. GUAUGUGGAAACACGUACUUGUAUCCUAGGCAGGAUAUGCGGAAACGCAGAAGGGCCACCGGCGAGUUUAUCCAGUGAUGUUGGA [Ex FMN A 9]
2. AAAUUUAAUAUAUUUAAUUAAUUAAGUGAUACCAGACAUUAAUAAGUCCCUUGGCAGCACAAUGCAGUGAUGUUGCUUAUAAUAA [JR_SSTheophyA_Sub009]

1: 251; 2: 169

Below are 3 sequences. Give each one its apparent KD of K4 kissing-loop reporter.
1. UGUCAUGGAAACAUGACCGUUAAAAUAAAUCGAGGACCGGUACGGCCGCCACUCGUAUAGCGGUCAGUGAUGUUGACUGUAGUAC [KL-SSTryp-A form2 sub12 #dotplot2>1]
2. UGACUGGACUGAAGGAGCGGGCGAGACAAAGUCUCGAACUGCUAGUGAUGUUAGCAAAUAACCCAGGUAGGUCGCAGUCUAGUCU
3. UUUCGUUUCGUCUGACAUAAUUGGCUAGAAGGAGCGGUAAAAUUACCAGGUAGGUCGCUAGCCCAGUGAUGUUGGGACUAGCGUA [Edries]

1. 475
2. 109
3. 116

Below are 2 sequences. Give each one its apparent KD of K4 kissing-loop reporter.
1. AAGUGUUCUAGUGAUACCAGACAUUUCUAUUACAUUAAUAUAGCUAAGUGAUGUUUAGCAGUCCCUUGGCAGCACUAUUUCACUA [JR_SSTheophyB_Sub015]
2. AUUUGUUUAUGUGAUACCAGACUUUGCAGUGAUGUUGCAUUUAUUUUAGAAGAAUAGUUUGUCCCUUGGCAGCACUAUGUAUUUA [JR_SSTheophyB_Sub006]

1. 238
2. 80.7

Below are 4 sequences. Give each one its apparent KD of K4 kissing-loop reporter.
1. GCCGUAGAUUGAAGGAGCGGACUUAUAGGUCUUAAGGAGUGAUGUUCCUGACACUCGGCGGUCCAGGUAGGUCGCAAUCUACGGC
2. UUAGGAGUGGAAGGAUAUCCUGGUGUGGGUGGUGUUAGUGAUGUUGGUGGUGCAGUGAUGUUGCGCGGAGAAGGUCCGGUGUUGA [BDazzled - #4 - Exc. FMN B]
3. UCCUGCAAUCGACCACGAAAGUGGUUCGAUACCAGAGUCGAAAGACUCCCUUGGCAGCGAGUGAUGUUCGAGCAGGUAAAAUAAA
4. AGUCCACUCUAAAGAGUGGACCUAAGGGAUACCAGUGAUGUUGGUCACCCUUGGCAGCCCACUGUCAUCGAUAAAGAUGGCAGCA

1: 252; 2: 554; 3: 467; 4: 117

Origin of measurements: the supplement of paper PMC9170038
